molecular target: HIV-1 YU-2 gp120 (HIV-1 (YU-2), UniProt P35961); assay: SPR
Listed next: entries and their corresponding IC50.

Below, 5 binders whose answers are already recorded.
binder	IC50
Fab m18 R100aE (HCDR3) (Fab, V domains shown) VH: VQLLESGPGVVKPSETLSLTCTVSGASVNNYYWTWVRQPPGKGLEWIGNVYDSGDTNYNPSLSSRLSLSMDTSKNQFSLRLSSVTAADTATYYCARYHRHFIEGPLSFDYWGRGTLVTVSS VL: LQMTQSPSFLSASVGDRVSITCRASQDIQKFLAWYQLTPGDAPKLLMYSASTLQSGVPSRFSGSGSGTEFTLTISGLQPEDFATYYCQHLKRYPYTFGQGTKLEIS	> 1000 nM
Fab m18 P61A (HCDR2) (Fab, V domains shown) VH: VQLLESGPGVVKPSETLSLTCTVSGASVNNYYWTWVRQPPGKGLEWIGNVYDSGDTNYNASLSSRLSLSMDTSKNQFSLRLSSVTAADTATYYCARYHRHFIRGPLSFDYWGRGTLVTVSS VL: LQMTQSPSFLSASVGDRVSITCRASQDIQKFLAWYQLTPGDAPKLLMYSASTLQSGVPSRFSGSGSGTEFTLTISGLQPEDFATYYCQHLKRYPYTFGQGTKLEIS	> 1000 nM
Fab m18 Y102A (HCDR3) (Fab, V domains shown) VH: VQLLESGPGVVKPSETLSLTCTVSGASVNNYYWTWVRQPPGKGLEWIGNVYDSGDTNYNPSLSSRLSLSMDTSKNQFSLRLSSVTAADTATYYCARYHRHFIRGPLSFDAWGRGTLVTVSS VL: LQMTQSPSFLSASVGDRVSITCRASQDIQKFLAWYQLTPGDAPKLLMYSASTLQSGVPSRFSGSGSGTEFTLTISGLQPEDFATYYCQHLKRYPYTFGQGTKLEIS	> 1000 nM
Fab m18 D56A (HCDR2) (Fab, V domains shown) VH: VQLLESGPGVVKPSETLSLTCTVSGASVNNYYWTWVRQPPGKGLEWIGNVYDSGATNYNPSLSSRLSLSMDTSKNQFSLRLSSVTAADTATYYCARYHRHFIRGPLSFDYWGRGTLVTVSS VL: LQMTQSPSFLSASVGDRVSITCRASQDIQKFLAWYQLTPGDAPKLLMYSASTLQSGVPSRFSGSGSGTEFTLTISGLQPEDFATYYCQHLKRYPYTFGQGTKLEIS	> 1000 nM
Fab m18 R93A (LCDR3) (Fab, V domains shown) VH: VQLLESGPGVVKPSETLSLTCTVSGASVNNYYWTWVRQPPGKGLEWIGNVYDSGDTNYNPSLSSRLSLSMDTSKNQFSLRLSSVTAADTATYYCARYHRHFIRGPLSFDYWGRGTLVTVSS VL: LQMTQSPSFLSASVGDRVSITCRASQDIQKFLAWYQLTPGDAPKLLMYSASTLQSGVPSRFSGSGSGTEFTLTISGLQPEDFATYYCQHLKAYPYTFGQGTKLEIS	78.7 nM

Which value of IC50 has been reported for Fab m18 F99A (HCDR3) (Fab, V domains shown) VH: VQLLESGPGVVKPSETLSLTCTVSGASVNNYYWTWVRQPPGKGLEWIGNVYDSGDTNYNPSLSSRLSLSMDTSKNQFSLRLSSVTAADTATYYCARYHRHAIRGPLSFDYWGRGTLVTVSS VL: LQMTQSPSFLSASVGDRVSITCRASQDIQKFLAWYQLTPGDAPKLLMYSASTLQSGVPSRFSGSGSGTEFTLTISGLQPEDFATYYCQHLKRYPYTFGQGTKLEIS in the records?
> 500 nM

Cited source: paper PMC3499988
